Ki: recorded values
testedTarget: α1B-AR (Mesocricetus auratus, UniProt P18841)
Construct: expressed in transfected cells; host or cells: COS-1
Sequence (P18841 1-515): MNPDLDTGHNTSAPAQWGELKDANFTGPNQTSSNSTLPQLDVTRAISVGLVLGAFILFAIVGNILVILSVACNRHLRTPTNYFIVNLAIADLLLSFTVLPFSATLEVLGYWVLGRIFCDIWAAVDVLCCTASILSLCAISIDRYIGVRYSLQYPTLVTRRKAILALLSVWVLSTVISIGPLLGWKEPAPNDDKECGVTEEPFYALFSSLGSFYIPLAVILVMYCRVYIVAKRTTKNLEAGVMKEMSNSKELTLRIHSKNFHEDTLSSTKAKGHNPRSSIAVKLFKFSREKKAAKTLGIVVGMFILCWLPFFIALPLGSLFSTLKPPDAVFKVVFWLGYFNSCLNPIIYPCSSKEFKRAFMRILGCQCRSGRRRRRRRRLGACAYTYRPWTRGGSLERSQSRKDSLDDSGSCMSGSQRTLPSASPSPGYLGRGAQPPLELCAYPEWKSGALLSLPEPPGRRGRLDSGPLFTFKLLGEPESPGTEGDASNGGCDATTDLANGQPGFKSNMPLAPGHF
procedureSummary: [3H]Prazosin competition/saturation binding on COS-1 membranes expressing α1B-AR
Set-up: species or system rodent
runConditions: [3H]Prazosin 200 pM, COS-1 membranes; antilog of mean pKi, Cheng-Prusoff; read-out: Ki α1B-AR

compound: Cc1cc(CN2CCCN(C(=S)Nc3ccccc3C(F)(F)F)CC2)no1
Ki: > 100 µM

compound: Cc1cccc(CN2CCCN(C(=S)NCCN3CCOCC3)CC2)n1
Ki: > 100 µM

compound: Cc1ccc(C(=O)/C(S)=C(\Nc2cccc(Cl)c2)[n+]2ccccc2)cc1
Ki: > 100 µM

Look up Ki for this compound: CCCCCCCCN(CCCCCCCC)CC(O)c1ccccc1Cl (stereo not drawn) > 100 µM

I am curious: what Ki value has been reported for CCCCN(Cc1ccc(N(CC)CC)cc1)CC(O)c1ccc(Cl)cc1 (stereo not drawn) ? > 100 µM

Query: Ki; subject: CCCCC(O)CN1CCC(Cc2ccccc2)CC1 (stereo not drawn) 17 µM

Quick one: Ki of CN(C)CC(C(=O)c1ccc(Br)cc1)C(Br)c1ccccc1 (stereo not drawn) ? 38.5 µM

Looking for the measured Ki of CCN(Cc1ccccc1)CC(O)c1cccc(Cl)c1 (stereo not drawn) , can you help? 24.4 µM

# lookup: Ki of CN(C)c1ccc(CN2CCCN(Cc3ccc(N(C)C)cc3)C2c2cc(Cl)ccc2O)cc1 > 100 µM

* * *

testedTarget: α1A-AR (Rattus norvegicus)
Construct: expressed in transfected cells; host or cells: COS-1
procedureSummary: [3H]Prazosin competition/saturation binding on COS-1 membranes expressing α1A-AR
Design: species or system rodent
runConditions: [3H]Prazosin 200 pM, COS-1 membranes; pKi = -Log Ki; read-out: pKi α1A-AR (converted)
measuredParameter: Ki

Before answering, review these 2 worked examples.
compound: Cc1cc(CN2CCCN(C(=S)Nc3ccccc3C(F)(F)F)CC2)no1 [Compound 4]
Ki: > 100 µM

compound: Cc1cccc(CN2CCCN(C(=S)NCCN3CCOCC3)CC2)n1 [Compound 5]
Ki: > 100 µM

Now for the compound whose Ki we want.
# Ki lookup, item Cc1ccc(C(=O)/C(S)=C(\Nc2cccc(Cl)c2)[n+]2ccccc2)cc1 [Compound 10] > 100 µM

* * *

# reported Ki; entries follow
testedTarget: α1D-AR (Rattus norvegicus)
Construct: expressed in transfected cells; host or cells: COS-1
Sequence (P23944 whole entry): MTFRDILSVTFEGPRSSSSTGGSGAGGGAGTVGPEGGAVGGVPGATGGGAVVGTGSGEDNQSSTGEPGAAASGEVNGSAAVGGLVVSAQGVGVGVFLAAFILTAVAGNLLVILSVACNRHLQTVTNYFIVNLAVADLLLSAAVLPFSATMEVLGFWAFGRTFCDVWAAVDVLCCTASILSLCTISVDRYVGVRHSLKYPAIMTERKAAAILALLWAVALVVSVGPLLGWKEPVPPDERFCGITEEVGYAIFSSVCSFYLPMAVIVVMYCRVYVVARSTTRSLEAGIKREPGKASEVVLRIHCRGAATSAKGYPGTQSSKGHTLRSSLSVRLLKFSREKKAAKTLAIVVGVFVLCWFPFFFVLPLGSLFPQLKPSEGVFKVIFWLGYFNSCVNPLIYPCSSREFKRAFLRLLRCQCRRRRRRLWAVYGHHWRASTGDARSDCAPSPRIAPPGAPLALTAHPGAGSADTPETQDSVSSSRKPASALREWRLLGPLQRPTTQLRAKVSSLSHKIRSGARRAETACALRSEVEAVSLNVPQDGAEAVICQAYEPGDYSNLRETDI
procedureSummary: [3H]Prazosin competition/saturation binding on COS-1 membranes expressing α1D-AR
Design: species or system rodent
runConditions: [3H]Prazosin 200 pM, pKi = -Log Ki, read-out: pKi α1D-AR (converted)

Consider the reported Ki for these compounds:
itemSmiles: Cc1ccc(C(=O)/C(S)=C(\Nc2cccc(Cl)c2)[n+]2ccccc2)cc1
testedTarget: α1D-AR (Rattus norvegicus)
Ki: > 100 µM
--
itemSmiles: Cc1cccc(CN2CCCN(C(=S)NCCN3CCOCC3)CC2)n1
testedTarget: α1D-AR (Rattus norvegicus)
Ki: > 100 µM

Shift focus to the following entry.
Reported Ki for α1D-AR (Rattus norvegicus), given Cc1cc(CN2CCCN(C(=S)Nc3ccccc3C(F)(F)F)CC2)no1 ? > 100 µM

* * *

testedTarget: α1A-AR (Rattus norvegicus, UniProt P43140)
Construct: expressed in transfected cells; host or cells: COS-1
Sequence (P43140 whole entry): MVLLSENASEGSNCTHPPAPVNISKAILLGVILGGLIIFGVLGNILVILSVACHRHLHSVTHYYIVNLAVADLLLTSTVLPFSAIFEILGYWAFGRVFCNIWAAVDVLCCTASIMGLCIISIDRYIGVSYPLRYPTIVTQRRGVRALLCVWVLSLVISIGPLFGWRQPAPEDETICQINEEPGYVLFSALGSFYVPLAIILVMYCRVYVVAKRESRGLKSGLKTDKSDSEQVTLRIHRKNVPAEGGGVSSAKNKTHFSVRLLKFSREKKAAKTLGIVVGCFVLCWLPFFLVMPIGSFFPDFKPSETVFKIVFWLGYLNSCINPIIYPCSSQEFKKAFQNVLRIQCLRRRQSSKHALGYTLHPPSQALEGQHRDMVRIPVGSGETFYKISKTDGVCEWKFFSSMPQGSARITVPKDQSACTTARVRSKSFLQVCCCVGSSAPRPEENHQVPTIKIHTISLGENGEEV
procedureSummary: [3H]Prazosin competition/saturation binding on COS-1 membranes expressing α1A-AR
Parameters: species or system rodent
runConditions: [3H]Prazosin 200 pM, COS-1 membranes; antilog of mean pKi, Cheng-Prusoff; read-out: Ki α1A-AR
Protocol: COS-1 cells (American Type Culture Collection, Manassas, VA) were cultured in Dulbecco's modified Eagle's medium (DMEM) supplemented with 10% (v/v) heat inactivated fetal bovine serum (FBS), 100 µg ml^−1 penicillin and 100 µg ml^−1 streptomycin. […] Membranes were prepared as described previously. […] Protein concentration was determined using Bradford reagent (Sigma, St Louis, MO, USA). […]
pKi: −log10 of the molar value.
Catalogue of pKi readings, one per entry.

Some entries whose results are on file:
itemSmiles: Cc1cc(CN2CCCN(C(=S)Nc3ccccc3C(F)(F)F)CC2)no1
pKi: < 4.00

itemSmiles: Cc1ccc(C(=O)/C(S)=C(\Nc2cccc(Cl)c2)[n+]2ccccc2)cc1
pKi: < 4.00

Now consider a different molecule.
Give pKi (α1A-AR (Rattus norvegicus, UniProt P43140)) of the following molecule: Cc1cccc(CN2CCCN(C(=S)NCCN3CCOCC3)CC2)n1 < 4.00
